# Test system: NCI-H1395
# Assay Comment: relative viability (nuclei count vs DMSO), 5 days (fraction); higher = more cells survive
# Condition Description: first compound 2.53 µM
Rule: relative viability below 0.9 gives rule met. Equal to or above 0.9 gives rule not met.

{"columns": ["Compound", "Group"],
 "data": [
  ["O=c1[nH]c2ccccc2n1C1CCN(CCCC(c2ccc(F)cc2)c2ccc(F)cc2)CC1 [Pimozide] + Cc1nc(Nc2ncc(C(=O)Nc3c(C)cccc3Cl)s2)cc(N2CCN(CCO)CC2)n1 [Dasatinib] (partner 0.075 µM)", "rule met"]
]}

Now turn to the next compound.
Ask | Consider the compound Cc1cnc(-c2cnc(NCCNc3ccc(C#N)cn3)nc2-c2ccc(Cl)cc2Cl)[nH]1 + Nc1ncn([C@H]2C[C@H](O)[C@@H](CO)O2)c(=O)n1 [Decitabine] (partner 2 µM) . Is its relative viability strictly less than 0.9?
Reply | rule met
